System: Chenopodium album (CHEAL), common lambsquarters
method_notes: Postemergence herbicide evaluation, growth of Chenopodium album (CHEAL)
Type: in vivo
details: Chenopodium album, post-emergence, 504 h, read-out: Ave. CHEAL
property_name: pest or weed control at 280 g/ha (%)
Numbers only, in %.

compound	scale_unit	pest or weed control at 280 g/ha
O=C(COc1ccc(Cl)cc1Cl)n1cnc2ccccc21	%	83
N#C/C(=N\OC(=O)COc1ccc(Cl)cc1Cl)c1ccccc1	%	94
O=C(COc1ccc(Cl)cc1Cl)OCCCOC(=O)COc1ccc(Cl)cc1Cl	%	88.5
O=C(COc1ccc(Cl)cc1Cl)OCCCCCCOC(=O)COc1ccc(Cl)cc1Cl	%	96.5
O=C(COc1ccc(Cl)cc1Cl)Nc1ccc(Cl)cc1	%	68

I need pest or weed control at 280 g/ha for every entry listed below, if you could help.
1. O=C(COc1ccc(Cl)cc1Cl)Oc1ccc(Cl)cc1
2. O=C(COc1ccc(Cl)cc1Cl)OCCOC(=O)COc1ccc(Cl)cc1Cl

# output
80
97.5

I need pest or weed control at 280 g/ha for every entry listed below, if you could help.
1. O=C(COc1ccc(Cl)cc1Cl)OCCOCCOCCOCCOC(=O)COc1ccc(Cl)cc1Cl
2. O=C(COc1ccc(Cl)cc1Cl)OCCOCCOCCOC(=O)COc1ccc(Cl)cc1Cl
3. O=C(COc1ccc(Cl)cc1Cl)OCCCCCOC(=O)COc1ccc(Cl)cc1Cl

# output
90
98.5
96

I need pest or weed control at 280 g/ha for every entry listed below, if you could help.
1. O=C(COc1ccc(Cl)cc1Cl)OCOC(=O)c1ccccc1
2. O=C(COc1ccc(Cl)cc1Cl)OCc1ccccc1 [Compound E4, Benzyl 2-(2,4-dichlorophenoxy)acetate]

# output
1: 70; 2: 88
